Test system: K4 kissing-loop RNA reporter;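 note: bound reporter read as fluorescence of individual clusters on recovered sequencing chips by microscopy, with normalized cluster intensities fitted with a binding model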
test_name: apparent KD of K4 kissing-loop reporter; higher = weaker reporter binding
recorded_conditions: Eterna round: R107; input ligand: theophylline 20 uM
If the reported apparent KD of K4 kissing-loop reporter equals or exceeds 0.2 µM, assign satisfied. If not, assign not satisfied.

apparent KD of K4 kissing-loop reporter >= 0.2 µM for AACGUAGCUACUGAUACCAGACUUUUUCUUGUAUAUUAGUCAAGUGAUGUUUGACUUUUAGUCCCUUGGCAGCAGUUGCUACGAA [JR_Nu_SSTheophyB_Sub028] ?
not satisfied

Kindly determine if apparent KD of K4 kissing-loop reporter recorded for GUAUCAGUGAUGUUGGUAGGCGAGCGGGAUACCAGCCAAGACUCAGGCCCUUGGCAGCCCACAUAUCCCACGUAGAUAGUAGCUC [Same State - Theophylline A (Freestyle 15)] is above or exactly 0.2 µM.
not satisfied

Item UGACUGGAUGGAAGGAGCGCUAAACUCCUAGUGAUGUUAGGGACACGAGACAAAGUCUCGAGGCAGGUAGGUCGCCAUCUAGUCU [FiskerMod 7 - Jieux - Same State - Arginine B] with apparent KD of K4 kissing-loop reporter of 0.2 µM or above?
satisfied

Please tell me: is the sequence UGAUUGGCGAAAGUAGUGAUGUUACGAACAUAGGAUAUUAGAGGAAUAAGAAGGAUGAAUGAGAAAGGAAUAAAUUGUUGGUUGG [#08 K4 FMN A Same State] at or over 0.2 µM in terms of apparent KD of K4 kissing-loop reporter?
not satisfied
